Collected from the literature: pIC50 of various molecules toward Fibroblast growth factor receptor 3 (Homo sapiens).
Give bare numbers, as −log10 of the molar value.

Solved entries:
1. Cc1[nH]c(/C=C2\C(=O)Nc3cccc(-c4ccc(Cl)cc4)c32)c(C)c1C(=O)NCCN1CCCC1; 7.13
2. COc1cc(Nc2ccc3ncc(-c4ccc(N5CCN(C(=O)C6CN(C(=O)/C=C/CN(C)C)C6)CC5)nc4)nc3c2)cc(OC)c1; 6.79
3. CNC(=O)c1cc(CCc2cnc(Nc3cnn(Cc4ccccn4)c3)nc2)c(F)c(OC)c1; 7.55
4. CNC(=O)c1cc(COc2cnc(Nc3ccc(N4C[C@@H](C)N[C@@H](C)C4)c(F)c3)nc2)c(F)c(OC)c1; 7.92
5. CNC(=O)c1cc(CCc2cnc(Nc3ccc(N4CCOCC4)cc3)nc2)c(F)c(OC)c1; 8.15
6. CNC(=O)c1cc(CCc2cnc(Nc3ccc(CN4CCOCC4)nc3)nc2)c(F)c(OC)c1; 7.59
7. CNC(=O)c1cc(CCc2cnc(Nc3ccn4ccnc4c3)nc2)c(F)c(OC)c1; 7.60
8. CNC(=O)c1cc(CCc2cnc(Nc3cnn(C(F)F)c3)nc2)c(F)c(OC)c1; 7.55
9. COc1cc(C)cc2cc(-c3c(CN(C)CC(F)(F)F)cn4ncnc(N)c34)sc12; 7.84
10. COc1ccc(-c2cccc3c2/C(=C/c2[nH]c(C)c(C(=O)NCCN4CCCC4)c2C)C(=O)N3)cc1; 7.34

Count: 4. Required value per item: pIC50.
1. C=CC(=O)N1CC(F)(C(=O)N2CCN(c3cc(C)c(-c4cnc5ccc(Nc6cc(OC)cc(OC)c6)cc5n4)cn3)CC2)C1
2. CNC(=O)c1cc(CCc2cnc(Nc3cc[n+]([O-])c(C)c3)nc2)c(F)c(OC)c1
3. CNC(=O)c1cc(CCc2cnc(Nc3ccc(CC(=O)O)cc3)nc2)c(F)c(OC)c1
4. CNC(=O)c1cc(CCc2cnc(Nc3cnn(C4CCNCC4)c3)nc2)c(F)c(OC)c1

result:
5.30
7.51
7.68
8.10

Batch of 3 molecules: report pIC50 for each.
1. CONC(=O)c1cc(CCc2cnc(Nc3ccc(Cl)cc3)nc2)cc(OC)c1
2. C=CC(=O)N1CC(C(=O)N2CC(n3cc(-c4cnc5ccc(Nc6cc(OC)cc(OC)c6)cc5n4)cn3)C2)C1
3. CNC(=O)c1cc(CCc2cnc(Nc3ccc(N4CCOCC4)cc3)nc2)c(Cl)c(OC)c1

result:
6.84
7.74
7.77
